Molecular target: human progesterone receptor A (Homo sapiens)
Sequence (P06401 1-769 isoform P06401-2): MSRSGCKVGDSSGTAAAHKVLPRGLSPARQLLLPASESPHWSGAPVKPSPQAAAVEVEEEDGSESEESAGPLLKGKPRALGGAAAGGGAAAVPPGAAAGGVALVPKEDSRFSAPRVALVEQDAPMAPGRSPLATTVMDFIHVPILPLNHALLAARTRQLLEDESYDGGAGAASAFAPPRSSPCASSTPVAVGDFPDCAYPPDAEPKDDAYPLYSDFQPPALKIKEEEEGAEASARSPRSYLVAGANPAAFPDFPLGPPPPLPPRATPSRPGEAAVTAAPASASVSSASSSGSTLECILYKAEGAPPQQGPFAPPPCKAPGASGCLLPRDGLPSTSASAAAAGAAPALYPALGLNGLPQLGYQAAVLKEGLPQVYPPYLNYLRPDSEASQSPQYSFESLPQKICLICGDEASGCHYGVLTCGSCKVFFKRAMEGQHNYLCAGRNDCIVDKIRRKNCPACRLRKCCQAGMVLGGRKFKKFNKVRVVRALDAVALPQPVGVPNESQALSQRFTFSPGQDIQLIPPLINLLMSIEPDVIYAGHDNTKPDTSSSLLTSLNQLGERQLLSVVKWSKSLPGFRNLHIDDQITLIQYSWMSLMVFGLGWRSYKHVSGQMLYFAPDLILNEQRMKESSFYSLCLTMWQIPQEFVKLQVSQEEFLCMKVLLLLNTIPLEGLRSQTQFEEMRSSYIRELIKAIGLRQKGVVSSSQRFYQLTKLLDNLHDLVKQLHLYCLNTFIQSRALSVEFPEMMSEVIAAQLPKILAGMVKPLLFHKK
Test: Progesterone receptor antagonistic effect in stably transfected SK-N-MC cells, MTV-LUC reporter (PR-A)
Details: antagonism of 0.1 nmol/l promegestone, luciferase reporter, 24 hours
pIC50: −log10 of the molar value.
If the reported pIC50 equals or exceeds 9, assign 1.0. If not, assign 0.0.

>>> df
                                   compound  label_value
0  CC(=O)N1CCN(Cc2ccc([C@H]3C[C@@]4(C)C(CC[C@@]4(O)C(F)(F)C(F)(F)F)C4CCC5=CC(=O)CCC5=C43)cc2)CC1 (stereo partly drawn)          1.0
1  COc1ccccc1NCc1ccc([C@H]2C[C@@]3(C)[C@@H](CC[C@@]3(O)C(F)(F)C(F)(F)F)[C@@H]3CCC4=CC(=O)CCC4=C32)cc1          0.0
2  C[C@]12C[C@H](c3ccc(CN4CCC(c5ccccc5)CC4)cc3)C3=C4CCC(=O)C=C4CC[C@H]3[C@@H]1CC[C@@]2(O)C(F)(F)C(F)(F)F          0.0

Data origin: patent US9085603B2
